target: histamine H4 receptor (Homo sapiens, UniProt Q9H3N8); construct: expressed in transfected cells; host or cells: CHO cells; test: H4 binding, method 2 ([3H]-histamine binding with Ysi WGA beads on CHO cell membranes); settings: H4 binding, method 2; Ki calculated from IC50 (Cheng-Prussoff); read-out: Method 2 (Ki (nM))
OUTCOME MEASURE: Ki (nM)

CNC1CN(c2cc(NC(C)C)nc(N)n2)C1 [Example 60]	28.8

(A) CNC1CN(c2cc(NCC3CC3)nc(N)n2)C1 [Example 63]
(B) CNC1CN(c2cc(NCc3cccc(F)c3)ncn2)C1 [Example 45]
Record comparison, field Ki: mark the lower of A and B . Respond using the label that marks the chosen record.
A

(I) CNC1CN(c2cc(NCCC(F)(F)F)nc(N)n2)C1 [Example 62]
(II) CNC1CN(c2cc(NCc3ccc(F)cc3)ncn2)C1 [Example 47]
Lab note: check whether I or II shows the higher recorded Ki. Respond with the label that goes with your answer.
II
(II: 256 nM, I: 14.1 nM)

(A) CNC1CN(c2cc(NCc3ccccc3OC)nc(N)n2)C1 [Example 87]
(B) CNC1CN(c2cc(NC(C)C)ncn2)C1 [Example 46]
(C) CC(C)CCNc1cc(N2CCN(C)CC2)nc(N)n1 [Example 108]
(D) CC(C)(C)CCNc1cc(N2CC3C(N)C3C2)nc(N)n1 (centres unmarked) [Example 333]
Arrange the 4 entries by Ki so the values rise. // format: requested-order list of labels
C, A, B, D

(P) CNC1CN(c2cc(NCC(C)C)nc(N)n2)C1 [Example 71]
(Q) CCNc1cc(N2CC[C@@H](NC)C2)nc(N)n1 [Example 12]
Between P and Q , which one shows the larger Ki value? Identify your selection by its label.
Q

(a) COCCNc1cc(N[C@@H]2CCNC2)ncn1 [Example 335]
(b) CC(C)(C)CCNc1cc(N2CC(N)C2)ncn1 [Example 118]
(c) CNC1CN(c2cc(NCc3ccccc3)ncn2)C1 [Example 51]
Sort these compounds on Ki so the largest reading comes first. Please express your ranking as an ordered list of the labels.
a, b, c

(A) CN[C@@H]1CCN(c2cc(NCC3CC3)ncn2)C1 [Example 15]
(B) CN(C)[C@@H]1CCN(c2cc(NCCC(C)(C)C)ncn2)C1 [Example 18]
Among A and B , which shows a numerically higher Ki result? Indicate your choice by writing its label.
B
(B: 387 nM, A: 19.2 nM)

(P) CNC1CN(c2cc(NCC(C)C)ncn2)C1 [Example 49]
(Q) CNC1CN(c2cc(NCc3cccc(F)c3)nc(N)n2)C1 [Example 65]
Could you please tell me which of these two has the higher Ki: P or Q ? Which one? Tell me its label.
P

(a) CCNc1cc(N2CC[C@@H](NC)C2)ncn1 [Example 13]
(b) CC(C)(C)CNc1cc(N2CCC(N3CCCC3)C2)nc(N)n1 (centres unmarked) [Example 327]
Field: lower recorded Ki (choose a or b ) Lab note: record the label of whichever item you select.
a
